- test.protocol: Protein binding
- Format: in vitro ADME
- measurement.context: In vitro dog plasma protein binding
Criterion: fu strictly under 0.09. Met: 1. Not met: 0.

Enquiry: Item CC(C)[C@H](Nc1ncnc2[nH]ccc12)c1ccc2c(c1)S(=O)(=O)CCC2 [ASAP-0008674] : fu beneath 0.09, strictly?
Return: 0

Enquiry: Hello, is fu of the following molecule strictly smaller than 0.09? CC(C)[C@@H](Nc1ncnc2[nH]c(-c3cnn(C)c3C#N)cc12)c1ccc2c(n1)OCCO2 [ASAP-0010716]
Return: 1

Enquiry: Below 0.09 on fu? Entry Cn1ncc(-c2cc3c(N[C@@H](c4ccc5c(n4)OCCO5)C(C)(C)C)ncnc3[nH]2)c1C#N [ASAP-0011221]
Return: 1

Enquiry: Consider COc1ccc([C@H](Cc2nnn[nH]2)NC(=O)c2ncnc3[nH]ccc23)cc1 [ASAP-0015381] . Does its fu lie strictly below 0.09?
Return: 0

Enquiry: In the record for C[C@H](C(=O)O)[C@@H](NC(=O)c1ncnc2[nH]ccc12)c1ccc(Br)cc1 [ASAP-0014722] , is fu less than 0.09?
Return: 1

Continuing:
Enquiry: Criterion: fu strictly below 0.09. Is it met by CC(C)[C@H](Nc1ncnc2[nH]c(-c3cnn(C)c3C#N)cc12)c1ccc2c(n1)OCCO2 [ASAP-0010715] ?
Return: 1
